Parameter Emax: see the listing below.
tgt: PKM2, human recombinant (Homo sapiens, UniProt P14618)
Construct: purchased BPS 50295
Sequence (P14618 whole entry): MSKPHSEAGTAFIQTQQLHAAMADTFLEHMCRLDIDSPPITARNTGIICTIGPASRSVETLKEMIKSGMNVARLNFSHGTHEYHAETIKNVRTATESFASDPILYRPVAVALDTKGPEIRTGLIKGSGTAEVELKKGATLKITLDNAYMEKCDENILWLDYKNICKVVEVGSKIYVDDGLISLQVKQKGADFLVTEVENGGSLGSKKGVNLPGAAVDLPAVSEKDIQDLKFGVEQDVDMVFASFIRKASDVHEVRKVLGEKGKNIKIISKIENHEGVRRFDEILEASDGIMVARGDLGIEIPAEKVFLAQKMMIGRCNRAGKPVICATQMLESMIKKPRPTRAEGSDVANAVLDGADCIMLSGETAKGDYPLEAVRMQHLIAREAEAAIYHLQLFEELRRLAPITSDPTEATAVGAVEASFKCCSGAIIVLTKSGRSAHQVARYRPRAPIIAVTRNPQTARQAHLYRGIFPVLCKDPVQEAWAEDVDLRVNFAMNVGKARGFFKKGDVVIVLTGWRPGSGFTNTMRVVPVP
assay-protocol: PKM2 enzymatic activity assay (Kinase-Glo Plus luminescence);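 for Max activity Group: percent increase over no-compound signal after subtracting the no-PKM2 background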
Assay type: biochemical
recorded-conditions: 1 h, maximum percent activity; luminescence without compound = 0% activity; read-out: Max activity Group
measured-endpoint: Emax

| compound | tgt | test-result |
| --- | --- | --- |
| CCS(=O)(=O)Nc1ccc(C2=NN(C(=O)c3ccco3)C(c3ccc(OC)cc3)C2)cc1 (stereo not shown) [Compound 53A] | PKM2, human recombinant (Homo sapiens, UniProt P14618) | ≥ 200% |
| CC(=O)N1N=C(c2ccc(NS(=O)(=O)c3ccc(F)cc3)cc2)CC1c1ccc2c(c1)OCCO2 (stereo not shown) | PKM2, human recombinant (Homo sapiens, UniProt P14618) | 130 to 200% |
| CCS(=O)(=O)Nc1ccc(C2=NN(C(C)=O)C(c3cccs3)C2)cc1 (stereo not shown) [Compound 67A] | PKM2, human recombinant (Homo sapiens, UniProt P14618) | 130 to 200% |
| CC(=O)N1N=C(c2ccc(NS(=O)(=O)c3ccc(F)cc3)cc2)CC1c1ccc(F)c(F)c1 (stereo not shown) [Compound 27A] | PKM2, human recombinant (Homo sapiens, UniProt P14618) | ≤ 130% |
| COc1ccc(C2CC(c3ccc(NS(=O)(=O)c4ccc(Cl)cc4)cc3)=NN2C(C)=O)cc1 (racemic) [Compound 26A] | PKM2, human recombinant (Homo sapiens, UniProt P14618) | ≤ 130% |
| CC(=O)N1N=C(c2ccc(NS(=O)(=O)c3ccc(F)cc3)cc2)CC1c1ccc(F)cc1 (racemic) [Compound 25A] | PKM2, human recombinant (Homo sapiens, UniProt P14618) | ≤ 130% |
| COc1ccc(C2CC(c3ccc(NS(=O)(=O)c4ccc(F)cc4)cc3)=NN2C(C)=O)cc1 (racemic) [Compound 6A] | PKM2, human recombinant (Homo sapiens, UniProt P14618) | 130 to 200% |

* * *

System: HT-29 (Colorectal cancer cell line)
assay-protocol: Cell proliferation, Assay Protocol I (CellTiter-Glo)
Format: cell-based
recorded-conditions: Homo sapiens
measured-endpoint: IC50

| compound | test-result |
| --- | --- |
| CCS(=O)(=O)Nc1ccc(C2=NN(C(C)=O)C(c3ccc(OC)cc3)C2)cc1 (racemic) | > 100 µM |

* * *

tgt: PKM2, human recombinant (Homo sapiens, UniProt P14618)
Construct: purchased BPS 50295
assay-protocol: PKM2 enzymatic activity assay (Kinase-Glo Plus luminescence)
Format: biochemical
recorded-conditions: 30 μM
Parameter Max activity: see the listing below.

| molecule | Max activity |
| --- | --- |
| COc1ccc(C2CC(c3ccc(NS(C)(=O)=O)cc3)=NN2C(C)=O)cc1OC (stereo not shown) [Compound 54A] | 6% (30 μM) |
| CCS(=O)(=O)Nc1ccc(C2=NN(S(C)(=O)=O)C(c3ccc(OC)cc3)C2)cc1 (stereo not shown) [Compound 55A] | −5% (30 μM) |
| CCS(=O)(=O)Nc1ccc(C2=NN(C(C)=O)C(c3ccc(Cl)o3)C2)cc1 (stereo not shown) [Compound 59A] | 47% (30 μM) |
| COc1cc(C2CC(c3ccc(NS(C)(=O)=O)cc3)=NN2C(C)=O)cc(OC)c1OC (stereo not shown) [Compound 56A] | −6% (30 μM) |
